- SYSTEM: T1, monomeric cynomolgus monkey CSF1R ectodomain protein (cynomolgus monkey, UniProt P07333 20-517 (human entry))
- T1 construct: also called monomeric cyno CSF1R; Cyno CSF1R
- T1 chain: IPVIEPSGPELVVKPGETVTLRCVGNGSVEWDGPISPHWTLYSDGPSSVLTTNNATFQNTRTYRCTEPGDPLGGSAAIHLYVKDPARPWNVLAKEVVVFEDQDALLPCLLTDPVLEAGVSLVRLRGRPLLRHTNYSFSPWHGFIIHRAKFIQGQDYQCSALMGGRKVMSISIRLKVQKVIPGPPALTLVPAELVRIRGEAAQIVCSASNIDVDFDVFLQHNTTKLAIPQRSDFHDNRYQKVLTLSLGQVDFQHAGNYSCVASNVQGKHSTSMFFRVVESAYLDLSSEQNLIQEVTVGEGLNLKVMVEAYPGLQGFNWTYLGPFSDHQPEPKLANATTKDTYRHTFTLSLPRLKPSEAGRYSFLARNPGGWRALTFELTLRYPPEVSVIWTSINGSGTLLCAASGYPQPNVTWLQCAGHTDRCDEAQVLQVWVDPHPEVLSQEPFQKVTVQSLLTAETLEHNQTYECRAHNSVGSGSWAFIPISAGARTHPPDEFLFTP
- TEST: SPR Biacore, IgG captured, monomeric CSF1R analyte
QUANTITY_NAME: koff (s⁻¹)
// note: answer is a bare numeric in s⁻¹

Some binders with recorded koff:
BINDER	koff [s⁻¹]
MH40 (antibody, human IgG4, V domains shown, Deimmunized MH5 derivative, human IgG4(S228P)/Ckappa IgG) VH: QVQLVQSGAEVKKPGSSVKVSCKASGYTFSSHYMIWVRQAPGQGLEWMGDINPYNGGANYAQKFQGRVTITADESTSTAYMELSSLRSEDTAVYYCAREGPYFSNLYVMDYWGRGTLVTVSS VL: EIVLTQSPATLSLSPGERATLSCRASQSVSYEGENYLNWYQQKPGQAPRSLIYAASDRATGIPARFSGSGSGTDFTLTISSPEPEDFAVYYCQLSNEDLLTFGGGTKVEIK	0.00101
MH33 (antibody, human IgG4, V domains shown, Deimmunized MH5 derivative, human IgG4(S228P)/Ckappa IgG) VH: QVQLVQSGAEVKKPGSSVKVSCKASGYTFSSAYMIWVRQAPGQGLEWMGDINPYNGGANYAQKFQGRVTITADESTSTAYMELSSLRSEDTAVYYCAREGPYFSNLYVMDYWGRGTLVTVSS VL: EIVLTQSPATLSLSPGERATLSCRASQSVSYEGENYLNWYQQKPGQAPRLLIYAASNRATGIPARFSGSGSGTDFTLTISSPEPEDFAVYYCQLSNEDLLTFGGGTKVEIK	0.00115

Continue with the next binder.
Lab note: MH20 (antibody, human IgG4, V domains shown, Deimmunized MH5 derivative, human IgG4(S228P)/Ckappa IgG) VH: QVQLVQSGAEVKKPGSSVKVSCKASGYTFSSSYMIWVRQAPGQGLEWMGDINPYNGGANYAQKFQGRVTITADESTSTAYMELSSLRSEDTAVYYCAREGPYFSNLYVMDYWGQGTLVTVSS VL: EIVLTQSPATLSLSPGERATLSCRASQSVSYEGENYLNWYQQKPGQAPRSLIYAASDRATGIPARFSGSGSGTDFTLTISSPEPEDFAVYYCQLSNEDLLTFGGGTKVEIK gave koff of 0.00134
